The reported measurements were obtained from patent US11814435B2.

Target: T1, hBCMA (human BCMA) (Homo sapiens, UniProt Q02223)
T1 sequence (Q02223 1-184): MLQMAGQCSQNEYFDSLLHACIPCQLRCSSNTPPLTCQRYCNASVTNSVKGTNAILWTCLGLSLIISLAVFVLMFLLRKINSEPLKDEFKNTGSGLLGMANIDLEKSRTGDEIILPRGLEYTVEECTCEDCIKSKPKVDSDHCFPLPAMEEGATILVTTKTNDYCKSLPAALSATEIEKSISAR
Assay: Kinetics and affinity of hBCMA/human IgG interactions by SPR (Bio-Rad Proteon XPR36)
Format: binding
Conditions: human BCMA, 37° C.
Quantity Name: kd Human (s⁻¹)
Enter your answer as a number in s⁻¹; do not include the unit.

Use the examples below as a reference point.
## Input Give the reported kd Human for this molecule. COMBO_Rd4_6 nM_C21: anti-BCMA antibody (antibody, V domains shown) VH: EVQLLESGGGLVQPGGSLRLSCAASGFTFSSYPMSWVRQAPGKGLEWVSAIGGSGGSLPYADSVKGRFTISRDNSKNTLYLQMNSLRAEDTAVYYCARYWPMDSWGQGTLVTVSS VL: EIVLTQSPGTLSLSPGERATLSCRASQSVSAAYLAWYQQKPGQAPRLLMYDASIRATGIPDRFSGSGSGTDFTLTISRLEPEDFAVYYCQQYMCWPLTFGQGTKVEIK
## Output 7.34e-05

## Input Read off the recorded kd Human for COMBO_Rd4_6 nM_C08: anti-BCMA antibody (antibody, V domains shown) VH: EVQLLESGGGLVQPGGSLRLSCAASGFTFSSYPMSWVRQAPGKGLEWVSAIGGSGTWTYYADSVKGRFTISRDNSKNTLYLQMNSLRAEDTAVYYCARYWPMDSWGQGTLVTVSS VL: EIVLTQSPGTLSLSPGERATLSCRASQSVSSSYLAWYQQKPGQAPRLLMYDASIRATGIPDRFSGSGSGTDFTLTISRLEPEDFAVYYCQQYQKWPLTFGQGTKVEIK
## Output 0.000169

## Input Identify measured kd Human corresponding to A02_Rd4_0.6 nM_C09: anti-BCMA antibody (antibody, V domains shown) VH: EVQLLESGGGLVQPGGSLRLSCAASGFTFSSYAMNWVRQAPGKGLEWVSAISDSGGSMWYADSVKGRFTISRDNSKNTLYLQMNSLRAEDTAVYYCARYWPMSLWGQGTLVTVSS VL: EIVLTQSPGTLSLSPGERATLSCRASQSVSSSYLAWYQQKPGQAPRLLMYDASIRATGIPDRFSGSGSGTDFTLTISRLEPEDFAVYYCQQYQSWPLTFGQGTKVEIK
## Output 9.75e-05

Next:
## Input Specify measured kd Human for COMBO_Rd4_0.6 nM_C30: anti-BCMA antibody (antibody, V domains shown) VH: EVQLLESGGGLVQPGGSLRLSCAASGFTFSSYPMSWVRQAPGKGLEWVSAIGGSGGSTYYADSVKGRFTISRDNSKNTLYLQMNSLRAEDTAVYYCARYWPMDSWGQGTLVTVSS VL: EIVLTQSPGTLSLSPGERATLSCRASQSVSYMYLAWYQQKPGQAPRLLIYDASIRATGIPDRFSGSGSGTDFTLTISRLEPEDFAVYYCQQYKSWPLTFGQGTKVEIK .
## Output 0.000282

## Input Determine from records and report kd Human for A02_Rd4_6 nM_C19: anti-BCMA antibody (antibody, V domains shown) VH: EVQLLESGGGLVQPGGSLRLSCAASGFTFSSYAMNWVRQAPGKGLEWVSAISDSGGSRWYADSVKGRFTISRDNSKNTLYLQMNSLRAEDTAVYYCARYWPMSDWGQGTLVTVSS VL: EIVLTQSPGTLSLSPGERATLSCRASQSVSVLYLAWYQQKPGQAPRLLMYDASIRATGIPDRFSGSGSGTDFTLTISRLEPEDFAVYYCQQYLAWPLTFGQGTKVEIK
## Output 0.000148
